EC50 overview
test system: FLU A (PR/8/34); assay: Flu A Neuraminidase Antiviral Assay; assay type: cell-based
attribute.measured: EC50

INSERT INTO measurements (compound, attribute_measured, result) VALUES
  ('Cc1cccc(F)c1C1C(CC(F)(F)F)CCC2N(C)C(=O)c3c(O)c(=O)ccn3N12 (single isomer, unassigned) [Compound 77D]', 'EC50', '1.9 nM'),
  ('Cc1ccccc1C1C(CC(F)(F)F)CCC2(C)N(C)C(=O)c3c(O)c(=O)ccn3N12 (single isomer, unassigned) [Compound 87A]', 'EC50', '> 810 nM'),
  ('CN1C(=O)c2c(O)c(=O)ccn2N2C1CCCC2(C)c1ncccc1F (single isomer, unassigned) [Compound 27A]', 'EC50', '859 nM'),
  ('CN1C(=O)c2c(O)c(=O)ccn2N2C(c3ccccc3)C(CC(F)(F)F)CCC12C (single isomer, unassigned) [Compound 111A]', 'EC50', '> 8100 nM'),
  ('CC1(c2ccccc2)CCCC2N(CCC(F)(F)F)C(=O)c3c(O)c(=O)ccn3N21 (single isomer, unassigned) [Compound 38B]', 'EC50', '5.8 nM'),
  ('CN1C(=O)c2c(O)c(=O)ccn2N2C(c3ccccc3)C(c3ccc(F)c(F)c3F)CCC12 (single isomer, unassigned) [Compound 85A]', 'EC50', '> 810 nM');

---

system: FLU A (PR/8/34); experiment: Flu A Neuraminidase Antiviral Assay; type: cell-based
EC50 overview
attribute.measured: EC50 (µM)

INSERT INTO assay_data (molecule, system_tested, attribute_measured, comparison_symbol, quantitative_result) VALUES
  ('CN1C(=O)c2c(O)c(=O)ccn2N2C(c3cccc(F)c3)CCCC12 (single isomer, unassigned) [Compound 10B]', 'FLU A (PR/8/34)', 'EC50', '=', 0.0865),
  ('CC1(c2ccccc2)CCCC2N(CC(F)(F)F)C(=O)c3c(O)c(=O)ccn3N21 (single isomer, unassigned) [Compound 34B]', 'FLU A (PR/8/34)', 'EC50', '=', 0.0049),
  ('CN1C(=O)c2c(O)c(=O)ccn2N2C(c3ccccc3)C(c3cc(F)c(F)cc3F)CCC12 (single isomer, unassigned) [Compound 86B]', 'FLU A (PR/8/34)', 'EC50', '>', 0.81),
  ('CC1(c2ccccn2)CCCC2N(CC(F)(F)F)C(=O)c3c(O)c(=O)ccn3N21 (single isomer, unassigned) [Compound 39B]', 'FLU A (PR/8/34)', 'EC50', '=', 0.0101),
  ('CCN1C(=O)c2c(O)c(=O)ccn2N2C(c3ccccc3)C(CCC(F)F)CCC12 (single isomer, unassigned) [Compound 110B]', 'FLU A (PR/8/34)', 'EC50', '=', 0.0055),
  ('CN1C(=O)c2c(O)c(=O)ccn2N2C(c3ccccc3)C(C3CC3(F)F)CCC12 (single isomer, unassigned) [Compound 105B]', 'FLU A (PR/8/34)', 'EC50', '>', 0.81),
  ('CC1(c2nccs2)CCCC2N(CC(F)(F)F)C(=O)c3c(O)c(=O)ccn3N21 (single isomer, unassigned) [Compound 41B]', 'FLU A (PR/8/34)', 'EC50', '=', 0.0111),
  ('CN1C(=O)c2c(O)c(=O)ccn2N2C(c3cccc(Br)c3)C(CC(F)(F)F)CCC12 (single isomer, unassigned) [Compound 83A]', 'FLU A (PR/8/34)', 'EC50', '=', 0.152),
  ('Cc1cc(=O)c(O)c2n1N1C(c3ccccc3)C(CC(F)(F)F)CCC1N(C)C2=O (single isomer, unassigned) [Compound 132C]', 'FLU A (PR/8/34)', 'EC50', '>', 0.81),
  ('CN1C(=O)c2c(O)c(=O)ccn2N2C1CCCC2(C)c1cccc(Cl)c1 (single isomer, unassigned) [Compound 28B]', 'FLU A (PR/8/34)', 'EC50', '=', 0.278),
  ('CN1C(=O)c2c(O)c(=O)ccn2N2C(c3ccc(Cl)c(F)c3)CCCC12 (single isomer, unassigned) [Compound 3A]', 'FLU A (PR/8/34)', 'EC50', '=', 1.02),
  ('CN1C(=O)c2c(O)c(=O)ccn2N2C(c3ccccc3)CCCCC12 (single isomer, unassigned) [Compound 57B]', 'FLU A (PR/8/34)', 'EC50', '>', 8.1),
  ('CC1CCC2N(C)C(=O)c3c(O)c(=O)ccn3N2C1(C)c1ccccc1 (single isomer, unassigned) [Compound 29B]', 'FLU A (PR/8/34)', 'EC50', '=', 0.287),
  ('Cc1ccccc1C1C(CC(F)(C(F)(F)F)C(F)(F)F)CCC2N(C)C(=O)c3c(O)c(=O)ccn3N12 (single isomer, unassigned) [Compound 81B]', 'FLU A (PR/8/34)', 'EC50', '=', 0.744),
  ('CC1(c2cc(C(F)(F)F)ccn2)CCCC2N(CC3(C(F)(F)F)CC3)C(=O)c3c(O)c(=O)ccn3N21 (single isomer, unassigned) [Compound 52B]', 'FLU A (PR/8/34)', 'EC50', '>', 2.7),
  ('CC1CC(c2ccccc2)N2C(C1)N(C)C(=O)c1c(O)c(=O)ccn12 (single isomer, unassigned) [Compound 6A]', 'FLU A (PR/8/34)', 'EC50', '=', 0.372),
  ('CN1C(=O)c2c(O)c(=O)ccn2N2C(c3ccccc3)C(CC(C)(F)F)CCC12 (single isomer, unassigned) [Compound 126A]', 'FLU A (PR/8/34)', 'EC50', '>', 8.1),
  ('O=C1c2c(O)c(=O)ccn2N2C(c3ccccc3)C(CC3(C(F)(F)F)CC3)CCC2N1CC1CC1 (single isomer, unassigned) [Compound 90B]', 'FLU A (PR/8/34)', 'EC50', '=', 0.0293),
  ('CN1C(=O)c2c(O)c(=O)ccn2N2C1CCCC21CCCc2ccccc21 (single isomer, unassigned) [Compound 32B]', 'FLU A (PR/8/34)', 'EC50', '=', 0.156),
  ('CCN1C(=O)c2c(O)c(=O)ccn2N2C(c3ccccc3C)C(CC(F)(F)F)CCC12 (single isomer, unassigned) [Compound 93B]', 'FLU A (PR/8/34)', 'EC50', '=', 0.0029),
  ('CCN1C(=O)c2c(O)c(=O)ccn2N2C(c3ccccc3)C(CC3(C(F)(F)F)CC3)CCC12 (single isomer, unassigned) [Compound 97B]', 'FLU A (PR/8/34)', 'EC50', '=', 0.0242),
  ('CC(C1CCC2N(C)C(=O)c3c(O)c(=O)ccn3N2C1c1ccccc1)C(F)(F)F (single isomer, unassigned) [Compound 109B]', 'FLU A (PR/8/34)', 'EC50', '=', 0.0054),
  ('CN1C(=O)c2c(O)c(=O)ccn2N2C(c3ccccc3)C(CC(F)F)CCC12 (single isomer, unassigned) [Compound 129D]', 'FLU A (PR/8/34)', 'EC50', '=', 0.092),
  ('Cc1ccccc1C1C(CC2CC2(F)F)CCC2N(C)C(=O)c3c(O)c(=O)ccn3N12 (single isomer, unassigned) [Compound 88A]', 'FLU A (PR/8/34)', 'EC50', '>', 0.81),
  ('CN1C(=O)c2c(O)c(=O)ccn2N2C(c3ccccc3)C(C3CCC(F)(F)CC3)CCC12 (single isomer, unassigned) [Compound 84B]', 'FLU A (PR/8/34)', 'EC50', '=', 0.042);
